Task for the reader: assign each of the following compounds its reported viability, T/C.
System: 156681-154-R-J1 tumor spheroid viability
Assay: Anticancer human tumor 156681-154-R-J1 patient-derived melanoma cell line growth inhibition
Conditions: second compound 31.6 µM; first compound 0.949 µM; active compounds read low; spheroids with HUVEC and MSC
Respond numerically; units are % and should not be typed.

Inquiry: Looking for the measured viability, T/C of O=C(c1cc(Cc2n[nH]c(=O)c3ccccc23)ccc1F)N1CCN(C(=O)C2CC2)CC1 + Cn1nnc2c(C(N)=O)ncn2c1=O , can you help?
Reply text: 48.4

Inquiry: Looking for the measured viability, T/C of Cc1sc2c(c1C)C(c1ccc(Cl)cc1)=NC(CC(=O)Nc1ccc(O)cc1)c1nnc(C)n1-2 (centres undefined) + Cn1nnc2c(C(N)=O)ncn2c1=O , can you help?
Reply text: 22.6

Inquiry: Looking for the measured viability, T/C of CNCc1ccc(-c2cc(-c3nc(-c4ccc(S(=O)(=O)C(C)C)cc4)cnc3N)on2)cc1 + Cn1nnc2c(C(N)=O)ncn2c1=O , can you help?
Reply text: 38

Inquiry: Looking for the measured viability, T/C of Cn1ncnc1[C@H]1c2n[nH]c(=O)c3cc(F)cc(c23)N[C@@H]1c1ccc(F)cc1 + Cn1nnc2c(C(N)=O)ncn2c1=O , can you help?
Reply text: 17

====

Test system: 156681-154-R-J1 tumor spheroid viability
Assay: Anticancer human tumor 156681-154-R-J1 cell line growth inhibition;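 also: spheroids exposed to compounds for 7 days before readout; percent of vehicle control viability where 100% = DMSO-treated spheroids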
Conditions: second compound 0.003 µM; first compound 0.1 µM; active compounds read low; spheroids with HUVEC and MSC
Task for the reader: assign each of the following compounds its reported viability, T/C.
Respond numerically; units are % and should not be typed.

Inquiry: Looking for the measured viability, T/C of COc1ccc([C@@H](O)c2cc(-c3ncnc4cc(N5CCOCC5)ccc34)c(F)cc2Cl)nn1 + COc1cc2c(cc1O)CCNC21CSC2c3c(OC(C)=O)c(C)c4c(c3C(COC1=O)N1C(O)C3Cc5cc(C)c(OC)c(O)c5C(C21)N3C)OCO4 , can you help?
Reply text: 0.3

Inquiry: Looking for the measured viability, T/C of COc1ccc([C@@H](O)c2cc(-c3ncnc4cc(N5CCOCC5)ccc34)c(F)cc2Cl)nn1 + CC[C@@]1(O)C(=O)OCc2c1cc1n(c2=O)Cc2cc3c(CN(C)C)c(O)ccc3nc2-1 , can you help?
Reply text: 70.4

Inquiry: Looking for the measured viability, T/C of [2H]c1nc(C)nc([2H])c1-c1cc(NC[C@@H](C)c2cccc3c(C(=O)NC)ccnc23)ncn1 + CC[C@@]1(O)C(=O)OCc2c1cc1n(c2=O)Cc2cc3c(CN(C)C)c(O)ccc3nc2-1 , can you help?
Reply text: 132

Inquiry: Looking for the measured viability, T/C of Cc1cc(C)c(CNC(=O)c2cc(-c3ccc(CN4CCOCC4)cc3)cc3c2cnn3C2CCCC2)c(=O)[nH]1 + COc1cc2c(cc1O)CCNC21CSC2c3c(OC(C)=O)c(C)c4c(c3C(COC1=O)N1C(O)C3Cc5cc(C)c(OC)c(O)c5C(C21)N3C)OCO4 , can you help?
Reply text: 0.31

Inquiry: Looking for the measured viability, T/C of [2H]c1nc(C)nc([2H])c1-c1cc(NC[C@@H](C)c2cccc3c(C(=O)NC)ccnc23)ncn1 + COc1cc2c(cc1O)CCNC21CSC2c3c(OC(C)=O)c(C)c4c(c3C(COC1=O)N1C(O)C3Cc5cc(C)c(OC)c(O)c5C(C21)N3C)OCO4 , can you help?
Reply text: 0.3

These entries and their values trace back to PubChem BioAssay AID1845195.
